- Test system: HS 578T breast
- protocolDetails: NCI tumour cell line growth inhibition, 48 h
metricName: TGI

Examples with their reported TGI follow.
1) CN1CC(C(=O)NC2(C)OC3(O)C4CCCN4C(=O)C(Cc4ccccc4)N3C2=O)C=C2c3cccc4[nH]cc(c34)CC21 (configuration not stated) : 29 µM
2) COc1cc(O)c2c(c1)C(O)C(O)CC1OC1C(=O)/C=C/CC(C)OC2=O (configuration not stated) : 59.5 µM
3) CC(C)(C)c1ccc(S(=O)(=O)N[C@H]2CC[C@H]3[C@@H]4CCc5cc(O)ccc5[C@H]4CC[C@]23C)cc1 : 6.98 µM
4) CSc1nc(Br)nc2c1ncn2C1CC(Oc2ccc(C)cc2)C(COc2ccc(C)cc2)O1 (configuration not stated) : 65.5 µM
5) CCc1nc(N)nc(N)c1-c1ccc([N+](=O)[O-])c(Cl)c1 : > 100 µM

Here is the next item to consider.
### Prompt API: value(readout= TGI, system= HS 578T breast, query= O=C(NCCCCl)c1c(O)c2ccccc2[nH]c1=O )
### Response > 100 µM

----------
- System: SNB-19 CNS
- protocolDetails: NCI tumour cell line growth inhibition, 48 h
Where a SMILES comes first, the peptide text is derived from it. The star is where a group is joined. Palmitoyl = CCCCCCCCCCCCCCCC(=O)*
metricName: TGI (µM)
# output: bare number, implied unit µM

Examples with their reported TGI follow.
1) N#CC(=C=[N-])[n+]1ccc(Cl)cc1 : 94.5
2) CC(=O)OCC1OC(n2c3c(c(-c4ccco4)c(C#N)c2=S)CCCC3)C(OC(C)=O)C(OC(C)=O)C1OC(C)=O (stereo not drawn) : 26.2
3) CCCCCCCCCCCCCCCC(=O)NC(CCCCN)C(=O)NCC(=O)NC(Cc1ccccc1)C(=O)N1CCCC1C(=O)NC(CO)C(=O)NC(Cc1ccc(O)cc1)C(=O)NC(CCCCN)C(=O)NC(CC(C)C)C(=O)NC(CCCN=C(N)N)C(=O)N1CCCC1C(=O)NCC(N)=O (stereo not drawn) (Palmitoyl-KGFPSYKLRPG-NH2; configuration not given here) : 54.9

### Prompt Returns the measured TGI for the input compound. Input: C#Cc1cccc(Nc2ncnc3ccc(-c4cncc(NS(C)(=O)=O)c4)cc23)c1
### Response 16.2

----------
- System: XF 498 CNS
- protocolDetails: NCI tumour cell line growth inhibition, 48 h
metricName: TGI

1) COC(=O)C1CCC(=NC2c3ccccc3-c3ccccc32)N1 (stereo unspecified) : > 100 µM
2) COc1ccc(CC2C(=O)NC(C)C(=O)N(C)C3Cc4ccc(cc4)Oc4cc(ccc4O)CC(C(=O)NC(C)C(=O)NC(C)C(=O)N2C)N(C)C3=O)cc1 (stereo unspecified) : 0.0224 µM
3) Cc1c(-c2coc(-c3ccc(Cl)cc3)n2)c(=O)n(-c2ccccc2)n1C : > 100 µM
4) CCCCCCCCC(=O)NCCCNCCCNC(=O)CCCCCCCC : 9.22 µM

Here is the next item to consider.
### Prompt API: value(readout= TGI, system= XF 498 CNS, query= CCN(CC)c1ccc(C(=C2C=CC(=[N+](CC)CC)C=C2)c2ccccc2)cc1 )
### Response 0.0391 µM

----------
- Tested on: SR leukemia
- protocolDetails: NCI tumour cell line growth inhibition, 48 h; in the data active = GI50 below about 0.43 µM; inactive = the rest
Respond using exactly one of the listed classes: true (1) = active, false (0) = inactive

Worked examples, 9 compounds total:
1. O=C(CN=Cc1cccs1)CSC(c1ccccc1)c1ccccc1 : false (0)
2. CCCCCCCCCCCCCCCC(=O)N[C@H]1CCc2cc(OC)c(OC)c(OC)c2-c2ccc(SC)c(=O)cc21 : false (0)
3. O=c1[nH]c2cc(O)ccc2n2cc3c(F)cccc3c12 : false (0)
4. COc1cc(C(=O)N/N=C/c2cccc([N+](=O)[O-])c2)cc(OC)c1OC : false (0)
5. C#Cc1cccc(Nc2ncnc3ccc(-c4cncc(NS(C)(=O)=O)c4)cc23)c1 : false (0)
6. CCCCCCCCCCCCNC(=O)[C@H]1CSC(c2ccc(OC)c(F)c2)N1 (stereo not given in full) : true (1)
7. C=CC[PH+](c1ccccc1)c1ccccc1.C=CC[PH+](c1ccccc1)c1ccccc1.[Cl][Pt][Cl] : false (0)
8. CCCCCCN1C(=O)CN=C1Nc1ccc2cc3ccc(NC4=NCC(=O)N4CCCCCC)cc3nc2c1 : false (0)
9. CCNC(=O)Oc1ccc(/C(=C(\C)c2ccc(Cl)cc2)c2ccc(OCCN3CCCCC3)cc2)cc1 : false (0)

### Prompt Hey, what did the test say about CCCCCCCCCCCCCCCCCC1=NC(C)(C)CN1CCO ?
### Response false (0)
